Please provide measured TGI for the entries that follow.
System: KM12 colon
Test Summary: NCI tumour cell line growth inhibition, 48 h

Exercise: Returns the measured TGI for the input molecule. Input: `Cn1cc(C2=C(c3cn(CCO)c4ccccc34)C(=O)NC2=O)c2ccccc21`
Solution: 9.4 µM

Exercise: Further, for NC(=O)c1cccc(C2OC(COP(=O)(O)O)C(O)C2O)c1 (configuration not stated) ?
Solution: > 50 µM

Exercise: Further, for `COC(=O)C1=C(C)NC(C)=C(C(=O)OC)C1/C=C(\Cl)c1ccc(Cl)c(Cl)c1` ?
Solution: 31.5 µM

Exercise: Further, for `CCCCCCNC(=O)c1cc(CCc2cc(O)ccc2O)ccc1O` ?
Solution: 39.6 µM

Exercise: Further, for `N#Cc1n[nH]n(C2CCCCC2)c1=O` ?
Solution: > 100 µM

Exercise: Further, for `COP(=O)(Cc1ccc(/C=C/C#N)o1)OC` ?
Solution: > 100 µM

Exercise: Further, for `CCOc1ccc(Nc2nc3c(s2)C(=O)c2ccccc2C3=O)cc1` ?
Solution: 27.9 µM

Exercise: Further, for N#CC(C(=O)/C(=N/NC(=O)c1ccccc1O)C(C#N)c1ccccc1)c1ccccc1 (configuration not stated) ?
Solution: > 100 µM

Exercise: Further, for `N/C(=N\S(=O)(=O)c1cccc2nsnc12)Nc1ccc(Cl)cc1` ?
Solution: > 100 µM

Exercise: Further, for `COc1cc(-c2nc3sccn3c2-c2ccnc(NCCNS(=O)(=O)c3ccc(Cl)cc3)n2)ccc1F` ?
Solution: > 100 µM

Exercise: Further, for `S=c1nc(Cc2ccc(Cl)cc2)[nH][nH]1` ?
Solution: > 100 µM

Exercise: Further, for O=C1c2cccnc2C(=O)C2C3C=CC(C3)C12 (configuration not stated) ?
Solution: 32 µM

Exercise: Further, for COc1ccc(NC(=O)CC(=O)N2N=C(c3ccccc3)C(N=Nc3ccc(S(=O)(=O)CCOS(=O)(=O)O)cc3)C2=O)cc1 (configuration not stated) ?
Solution: > 100 µM

Exercise: Further, for CC1(C)C2CCC(CN)(C2)C1O (configuration not stated) ?
Solution: > 100 µM

Exercise: Further, for CC(=O)O[C@]12CCCCC1C1(O)C(O)CCCCC12 (some centres not stated) ?
Solution: > 100 µM

Exercise: Further, for n1onc2c1NC1Nc3nonc3NC1N2 (configuration not stated) ?
Solution: > 100 µM

Exercise: Further, for `O=C1Cc2c([nH]c3c(Cl)cccc23)-c2ccccc2N1` ?
Solution: > 100 µM

Exercise: Further, for `CCCCCCCc1cc(OC(=O)c2c(C)cc(OC)cc2O)cc(O)c1C(=O)O` ?
Solution: 46.2 µM

Exercise: Further, for `CN(C)Cc1cc(N=Nc2cccc(Cl)c2)ccc1O` ?
Solution: 22 µM

Exercise: Further, for `CCC[CH2][Sn]([CH2]CCC)([O]C(=O)c1cc(F)ccc1F)[O][Sn]([CH2]CCC)([CH2]CCC)[O]C(=O)c1cc(F)ccc1F` ?
Solution: 2.32 µM

Exercise: Further, for `N#Cc1c2c(c(Nc3cccc(C(F)(F)F)c3)n3c1nc1ccccc13)CCC2` ?
Solution: > 100 µM

Exercise: Further, for O=S1(=O)C(c2ccccc2)C(N2CCCCC2)C1C1CC2c3ccccc3C1c1ccccc12 (configuration not stated) ?
Solution: > 100 µM
